Target: T1, CD25 (Homo sapiens (Human), UniProt P01589 22-240)
T1 construct: also called IL-2R alpha chain
T1 sequence: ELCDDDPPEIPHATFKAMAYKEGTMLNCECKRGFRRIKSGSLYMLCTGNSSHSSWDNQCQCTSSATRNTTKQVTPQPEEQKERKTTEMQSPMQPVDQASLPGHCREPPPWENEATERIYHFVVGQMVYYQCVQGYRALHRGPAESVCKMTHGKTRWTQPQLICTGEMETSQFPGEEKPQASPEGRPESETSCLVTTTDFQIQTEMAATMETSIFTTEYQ
Assay: ELISA, CD25 coated plate
pEC50: −log10 of the molar value.
Please provide measured pEC50 for the entries that follow.

Determine its reported pEC50: IL-2 mutein SEQ ID NO: 54 (Fc fusion, also called IL-2 L56I N88D V69A, Q74P, C125S-G4Sx4-Fc) APTSSSTKKTQLQLEHLLLDLQMILNGINNYKNPKLTRMLTFKFYMPKKATELKHIQCLEEELKPLEEALNLAPSKNFHLRPRDLISDINVIVLELKGSETTFMCEYADETATIVEFLNRWITFSQSIISTLTGGGGSGGGGSGGGGSGGGGSDKTHTCPPCPAPEAAGAPSVFLFPPKPKDTLMISRTPEVTCVVVDVSHEDPEVKFNWYVDGVEVHNAKTKPREEQYNSTYRVVSVLTVLHQDWLNGKEYKCKVSNKALPAPIEKTISKAKGQPREPQVYTLPPSREEMTKNQVSLTCLVKGFYPSDIAVEWESNGQPENNYKTTPPVLDSDGSFFLYSKLTVDKSRWQQGNVFSCSVMHEALHNHYTQKSLSLSPG
> 9.00

Determine its reported pEC50: human IL-2 mutein fused N-terminally to human IgG1 Fc domain (SEQ ID NO: 57) (Fc fusion, also called IL-2 N88D V69A, Q74P-G4Sx4-Fc) APTSSSTKKTQLQLEHLLLDLQMILNGINNYKNPKLTRMLTFKFYMPKKATELKHLQCLEEELKPLEEALNLAPSKNFHLRPRDLISDINVIVLELKGSETTFMCEYADETATIVEFLNRWITFSQSIISTLTGGGGSGGGGSGGGGSGGGGSDKTHTCPPCPAPEAAGAPSVFLFPPKPKDTLMISRTPEVTCVVVDVSHEDPEVKFNWYVDGVEVHNAKTKPREEQYNSTYRVVSVLTVLHQDWLNGKEYKCKVSNKALPAPIEKTISKAKGQPREPQVYTLPPSREEMTKNQVSLTCLVKGFYPSDIAVEWESNGQPENNYKTTPPVLDSDGSFFLYSKLTVDKSRWQQGNVFSCSVMHEALHNHYTQKSLSLSPG
> 9.00
